Where do these numbers come from? They come from patent US20240343704A1.

Exercise: for every item that follows, state its recorded IC50.
molecular target: Lck (h) (Homo sapiens); test: Lck Human  Kinase Enzymatic Radiometric Assay; format: biochemical; conditions: read-out: Lck IC50 nM Range*
Sequence (P06239 whole entry): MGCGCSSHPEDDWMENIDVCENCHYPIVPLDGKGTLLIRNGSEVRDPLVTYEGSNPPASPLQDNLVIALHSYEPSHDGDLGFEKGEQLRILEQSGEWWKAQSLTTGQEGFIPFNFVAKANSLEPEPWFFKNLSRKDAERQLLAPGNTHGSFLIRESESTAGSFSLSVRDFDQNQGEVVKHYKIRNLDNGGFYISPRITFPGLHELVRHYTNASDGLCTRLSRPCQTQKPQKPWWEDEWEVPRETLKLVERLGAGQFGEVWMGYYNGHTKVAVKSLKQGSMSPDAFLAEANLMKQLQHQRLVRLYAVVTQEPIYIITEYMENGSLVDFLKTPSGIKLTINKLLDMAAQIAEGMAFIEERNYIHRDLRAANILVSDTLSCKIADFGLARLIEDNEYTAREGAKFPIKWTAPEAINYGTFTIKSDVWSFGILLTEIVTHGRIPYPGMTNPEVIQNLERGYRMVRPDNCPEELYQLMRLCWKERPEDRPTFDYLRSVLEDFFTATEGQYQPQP

Data request, read-out IC50, for CC(C)[C@H]1CN(c2ccc(-c3cc(-c4ccc5c(c4)CCNC5=O)c(N)nc3F)cc2C(F)(F)F)CCO1
> 1000 nM

Form field: reported IC50 of CC(C)N1CCN(c2ccc(-c3cc(-c4cc5c(cc4F)C(=O)NCC5)c(N)nc3F)cc2C(F)(F)F)CC1
> 1000 nM

// IC50 lookup, key: Nc1nc(F)c(-c2ccc(N3CCN(CC4CC4)CC3)cc2)cc1-c1cc(F)c2c(c1)CCNC2=O
> 1000 nM

Entry Nc1nc(F)c(-c2ccc(C3CN(CC(F)F)CCO3)cc2)cc1-c1ccc2c(c1)CCNC2=O (stereo not shown) has what IC50?
> 1000 nM

State the recorded IC50 for this entry: CN1C[C@H]2C[C@@]2(c2ccc(-c3cc(-c4ccc5c(c4)C(C)(C)NC5=O)c(N)nc3F)cc2)C1
> 1000 nM

Look up IC50 for this molecule: COc1cc(OC2CCN(C(C)=O)CC2)ccc1-c1cc(-c2ccc3c(c2)CCNC3=O)c(N)nc1F
> 1000 nM

// IC50 lookup, key: CC(C)[C@H]1CN(c2ccc(-c3cc(-c4ccc5c(c4)CCNC5=O)c(N)nc3F)c(F)c2)CCN1C
> 1000 nM

Value lookup for IC50; key = CC(=O)N1CCC(Oc2ccc(-c3cc(-c4ccc5c(c4)CCNC5=O)c(N)nc3F)cc2C(F)(F)F)CC1
> 1000 nM

// query IC50 value for entry COCCN1CCC2(CC1)CC(=O)c1cc(-c3cc(-c4ccc5c(c4)CCNC5=O)c(N)nc3F)ccc1O2
> 1000 nM

Form field: reported IC50 of Nc1nc(F)c(-c2ccc3c(c2)CCNC3=O)cc1-c1ccc2c(c1)CCNC2=O
> 1000 nM

// lookup IC50 for CC(C)N1CC(Oc2ccc(-c3cc(-c4ccc5c(c4)CCNC5=O)c(N)nc3F)cc2)C1
> 1000 nM

Fill in the blank: the reported IC50 of Nc1nc(F)c(-c2ccc(CN3CCOCC3)cc2)cc1-c1ccc2c(c1)CCNC2=O is ____.
> 1000 nM

So what's the measured IC50 for this one? Nc1nc(F)c(-c2ccc(N3CCN(CC4CC4)CC3)cc2)cc1-c1ccc2c(=O)[nH]cc(F)c2c1
> 1000 nM

Param item = CCN1CCCCC1c1ccc(-c2cc(-c3ccc4c(c3)CCNC4=O)c(N)nc2F)cc1 (stereo not shown) ; retrieve measured IC50.
> 1000 nM

Name the reported IC50 value associated with the molecule Nc1nc(F)c(-c2ccc(N3CCS(=O)(=O)CC3)cc2)cc1-c1cc2c(cc1F)C(=O)NCC2
> 1000 nM

Using the record for CN1CCN(c2ccc(-c3cc(-c4ccc5c(c4)CCNC5=O)c(N)nc3F)cc2)C=N1 , report its IC50.
> 1000 nM

----------
biological target: Recombinant (1-346) HPK1 (h) (Homo sapiens, UniProt Q92918); construct: Recombinant (1-346) HPK1 (h) is incubated with 8 mM MOPS pH 7.0; test: HPK1 Human STE Kinase Enzymatic Radiometric Assay; type: biochemical; details: read-out: HPK1 IC50 nM Range*
Sequence (Q92918 1-346): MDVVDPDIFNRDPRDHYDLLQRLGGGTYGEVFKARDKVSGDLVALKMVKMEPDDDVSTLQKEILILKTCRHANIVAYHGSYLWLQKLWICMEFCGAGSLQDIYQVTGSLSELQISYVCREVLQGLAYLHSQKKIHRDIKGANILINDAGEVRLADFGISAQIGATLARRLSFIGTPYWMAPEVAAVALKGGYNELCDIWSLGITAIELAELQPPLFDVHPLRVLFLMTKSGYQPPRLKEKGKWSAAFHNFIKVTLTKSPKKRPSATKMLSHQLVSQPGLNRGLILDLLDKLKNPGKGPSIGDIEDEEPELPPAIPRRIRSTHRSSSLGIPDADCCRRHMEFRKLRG
measurement_label: IC50

Consider the compound CC(C)(C)OC(=O)N1CCN(c2ccc(-c3cc(-c4ccc5c(c4)CCNC5=O)c(N)nc3F)nc2)CC1 [I-590] and give its measured IC50.
0.1 to 10 nM

Return reported IC50; argument: CS(=O)(=O)[C@H]1CCN(c2ccc(-c3cc(-c4ccc5c(c4)CCNC5=O)c(N)nc3F)cc2)C1 [I-117]
0.1 to 10 nM

Suppose we examine the compound Nc1nc(F)c(-c2ccc(N3CCOCC3)c(CN3CCC3)c2F)cc1-c1ccc2c(c1)CCNC2=O [I-609] ; what IC50 value has been reported?
11 to 100 nM

May I ask what IC50 has been recorded for Cc1[nH]c(=O)c2ccc(-c3cc(-c4ccc(N5CCOCC5)c(CN(C)C)c4)c(F)nc3N)cc2c1F [I-515] ?
11 to 100 nM

Requested read-out: IC50. Entry: Nc1nc(F)c(-c2ccc(OC3CCN(CC4CC4)CC3)cc2)cc1-c1ccc2c(c1)CCNC2=O [I-322]
0.1 to 10 nM

Quick one: IC50 of CN(C)Cc1nc(-c2cc(-c3ccc4c(c3)CCNC4=O)c(N)nc2F)ccc1C1CCOCC1 [I-600] ?
0.1 to 10 nM

// lookup IC50 for CN(C)[C@@H]1COc2ccc(-c3cc(-c4ccc5c(=O)[nH]cc(F)c5c4)c(N)nc3F)cc21 [I-630]
11 to 100 nM

Fill in: IC50 of Nc1nc(F)c(-c2ccc(C3CCOCC3)c([C@@H]3CCCN3)c2)cc1-c1cc(F)c2c(c1)CCNC2=O [I-369] is ___
0.1 to 10 nM

Please look up its IC50: Cc1cc(-c2cc(-c3ccc4c(c3)CCNC4=O)c(N)nc2F)cc2c1CCN(C)C2 [I-434]
0.1 to 10 nM

Would you kindly share the measured IC50 for Nc1nc(F)c(-c2ccc(N3CCN(CCC(F)(F)F)CC3)cc2)cc1-c1ccc2c(c1)CCNC2=O [I-240] ?
0.1 to 10 nM

Param item = CN(C)Cc1cc(-c2cc(-c3cc4c(cc3F)C(=O)NCC4)c(N)nc2F)ccc1OC1CCOCC1 [I-531] ; retrieve measured IC50.
11 to 100 nM

What does the record list as IC50 for Nc1nc(F)c(-c2ccc3c(c2)OCCCO3)cc1-c1ccc2c(c1)CCNC2=O [I-204] ?
0.1 to 10 nM

Data request, read-out IC50, for CC(C)N1CCCN(c2ccc(-c3cc(-c4ccc5c(c4)CCNC5=O)c(N)nc3F)cc2)CC1 [I-279]
0.1 to 10 nM

Fill in the blank: the reported IC50 of Cc1nc2cc(-c3cc(-c4ccc(N5C[C@@H](C)N(C)[C@@H](C)C5)cc4)c(F)nc3N)cc(F)c2c(=O)[nH]1 [I-501] is ____.
11 to 100 nM

What does the data say about its IC50? Entry: C[C@H](C1CC1)N1CCN(c2ccc(-c3cc(-c4cc(F)c5c(=O)[nH]ccc5c4)c(N)nc3F)cc2)CC1 [I-391]
0.1 to 10 nM

If you can, please state the reported IC50 value of C[C@@H]1COCCN1c1ccc(-c2cc(-c3ccc4c(c3)CCNC4=O)c(N)nc2F)c(F)c1 [I-108] .
11 to 100 nM

----------
Assign IC50 to each entry below.
target: Recombinant (1-346) HPK1 (h) (Homo sapiens, UniProt Q92918); construct: Recombinant (1-346) HPK1 (h) is incubated with 8 mM MOPS pH 7.0; assay: HPK1 Human STE Kinase Enzymatic Radiometric Assay; format: biochemical; conditions: read-out: HPK1 IC50 nM Range*

Record request: IC50 value, item CC(C)[C@@H]1CN(c2ccc(-c3cc(-c4cc(F)c5c(c4)CCNC5=O)c(N)nc3F)cc2)CCO1 [I-351]
0.1 to 10 nM

Give the measured IC50 of COCC(=O)N1C[C@H]2C[C@@]2(c2ccc(-c3cc(-c4ccc5c(c4)CCNC5=O)c(N)nc3F)cc2)C1 [I-220] .
0.1 to 10 nM

Please report the recorded IC50 for CN1CCCN(c2ccc(-c3cc(-c4ccc5c(c4)CCNC5=O)c(N)nc3F)cc2)CC1 [I-277] .
0.1 to 10 nM

Dear colleague, I am looking for the recorded IC50 of the following compound: Cc1nc2cc(-c3cc(-c4ccc(N5C[C@@H](C)N(C)[C@@H](C)C5)cc4)c(F)nc3N)ccc2c(=O)[nH]1 [I-500]
11 to 100 nM

Entry COCCN1C[C@H]2C[C@@]2(c2ccc(-c3cc(-c4ccc5c(c4)CCNC5=O)c(N)nc3F)cc2)C1 [I-140] has what IC50?
0.1 to 10 nM

Could you tell me which IC50 is on file for COC1CCN(Cc2cc(-c3cc(-c4cc5c(cc4F)C(=O)NCC5)c(N)nc3F)ccc2N2CCOCC2)CC1 [I-511] ?
11 to 100 nM

I'd like to know its IC50. The compound in question is COCCN1CCc2cc(-c3cc(-c4ccc5c(c4)CCNC5=O)c(N)nc3F)ccc2C1 [I-266]
11 to 100 nM

For the compound shown here, CC(=O)N1CCN(c2ccc(-c3cc(-c4ccc5c(c4)CCNC5=O)c(N)nc3F)cc2C(F)(F)F)CC1 [I-200] , give the reported IC50.
0.1 to 10 nM

I am curious: what IC50 value has been reported for CC(=O)N1CCC(Oc2ccc(-c3cc(-c4ccc5c(c4)CCNC5=O)c(N)nc3F)cc2F)CC1 [I-290] ?
0.1 to 10 nM

Would you kindly share the measured IC50 for CN(C)Cc1cc(-c2cc(-c3ccc4c(c3)CCNC4=O)c(N)nc2F)ccc1OC1CCOCC1 [I-530] ?
11 to 100 nM

For the compound Nc1nc(F)c(-c2ccc(N3CCS(=O)(=O)CC3)cc2)cc1-c1cc(F)c2c(c1)CCNC2=O [I-359] , what IC50 is on record?
0.1 to 10 nM

Fill blank: measured IC50 of the compound CNc1nc2cc(-c3cc(-c4ccc(N5CCN(C(C)C)CC5)cc4)c(F)nc3N)ccc2c(=O)[nH]1 [I-421] is ____.
11 to 100 nM

Using the record for COC1CCN(Cc2cc(-c3cc(-c4ccc5c(c4)CCNC5=O)c(N)nc3F)ccc2OCC2CC2)CC1 [I-508] , report its IC50.
11 to 100 nM

Look up IC50 for this compound: CC1CN(c2ccc(-c3cc(-c4ccc5c(c4)CCNC5=O)c(N)nc3F)cc2)CCN1C (stereo not shown) [I-88]
0.1 to 10 nM

Report IC50 for CC(C)N1CCN(Cc2cccc(-c3cc(-c4ccc5c(c4)CCNC5=O)c(N)nc3F)c2)CC1 [I-330] please.
11 to 100 nM

Quick one: IC50 of CC(C)N1CCN(c2ccc(-c3cc(-c4cc5c(cn4)C(=O)NCC5)c(N)nc3F)cc2)CC1 [I-398] ?
0.1 to 10 nM
